# Lookup of reported protein stability index keyed by entry
testProtocol: protein stability index of a GFP-peptide fusion (yeast GPS) (PSI 1-4); higher = more stable; sorted into four equal gates, so the index is relative within each strain
experimentalSetup: ubr1∆
Form rule: numeric answer, no unit written next to it.

Examples with their reported protein stability index follow.
> print(dat)
                         itemsequence  reported
1            SNPQHIIQPFLDNSKMD [RGR1]      2.86
2    TGAGAFGTGQSTFGFNN [YJL041W/NSP1]      2.85
3            ENNSDSNSNNNGNKDSS [SWI1]      3.04
4            GIKAKHDKNIQKLLKQL [ISW2]      2.79
5           DFSARTVISGDPNLELD [RPO21]      2.47
6  KRSTVPLNDGFVDLVEH [YML103C/NUP188]      2.69
7            AEEEEESDDDMGFGLFD [RPP0]      3.25
8           HKHNIMKNENANPKKLA [CDC53]      2.35

Summary for this sequence, PPGTGKTLCARAVANRT [RPT1] : protein stability index is 1.27

Sure, the documented protein stability index for KKFLRVRIFTKIESEDD [SRB4] is 1.11

Short answer for NAGTDIVMEDHGVLQGT [MED1] : protein stability index was 3

###

Reported values of protein stability index for individual entries
testProtocol: protein stability index of a GFP-peptide fusion (yeast GPS) (PSI 1-4); higher = more stable; sorted into four equal gates, so the index is relative within each strain
experimentalSetup: san1∆
Just the number, please, no unit attached.

Worked cases, protein stability index given:
> print(dat)
                       itemsequence  reported
1          IRIFRSELQRLSHENNV [RPT5]      2.96
2        REKRAREKAEAEAEKKK [RPL13A]      3.31
3          NRPNTLDPALLRPGRID [RPT1]      3.16
4          ASAPLCSPKLPVEKVQR [DLS1]      2.92
5  NATVVDSFKYEPLAPGN [YLR335W/NUP2]      2.98

The reported protein stability index of the sequence IYNSTDSNSEILNFLNQ [YML103C/NUP188] was 2.71

protein stability index for QIDHFKSMLSKPETLSI [SWI3] is 2.73

Record STLEPTLRKELEQIQVQ [YIL149C/MLP2] . Reported protein stability index: 2.89

Reported protein stability index of PLIMATCGSKGSTLNVS [RPO31] : 2.54

GET /value?item= VDENDEVLLAGFGRKGK [RPS23A] &field=protein stability index returns 1.15

The sequence listed as VKGLLNTYKRLVIGIFK [YJL039C/NUP192] has a reported protein stability index of 1.5

The sequence EKDCSLRAIEKNDDNSC [YIL149C/MLP2] showed protein stability index equal to 3.06

###

testProtocol: protein stability index of a GFP-peptide fusion (yeast GPS) (PSI 1-4); higher = more stable; sorted into four equal gates, so the index is relative within each strain
experimentalSetup: doa10∆
Classify as follows. Reported protein stability index greater than or equal to 3: class 1. Reported protein stability index below: class 0.

> print(dat)
                       itemsequence  classassignment
1          SRKRGGENVFLKRISDG [SIR3]          class 1
2  QPEVAVKAAINFSNVTD [YIL149C/MLP2]          class 0
3          TTKERKKSRLGNSFHLM [PRP8]          class 0
4         LQQGMRGAWGKPHGLAA [RPL10]          class 0
5         ADDVFTGTGLQDENIGL [RPC31]          class 1

Prompt: Decide: is the reported value of protein stability index for EIEMKNKLEKLNSLLTY [SMC4] equal to or greater than 3?
Completion: class 0
